measurement protocol: Solubility evaluation in aqueous buffer
Type: physicochemical
condition summary: aqueous buffer, 25 °C, pH 4, aqueous buffer, thermodynamic from solid, aqueous buffer pH 4, 25° C., about 24 hours equilibration; read-out: Solubility (mg/mL) at 25° C. pH 4
Where a name gives a salt, the structure may show the parent alone.
Classify as follows. Reported solubility greater than or equal to 0.8 mg/mL: Criterion met. Reported solubility below: Criterion not met.

Some solved cases for reference:
1) CCOC(=O)n1c(-c2cn3ncnc3c(C)c2C)c(C(C)C)c2cc(C3CCN(CC(N)=O)CC3)ccc21 [Example 24]
Criterion met
2) Cc1c(-c2c(C(C)C)c3cc(C4CCN(CC(N)=O)CC4)ccc3n2C(=O)OC[C@@H]2CCCN2)cn2ncnc2c1C [Example 3]
Criterion met
3) Cc1c(-c2[nH]c3ccc(C4CCN(CC(N)=O)CC4)cc3c2C(C)C)cn2nc[n+](COC(=O)N(C)CCOP(=O)(O)O)c2c1C (single isomer, unassigned) [Example 21, trifluoroacetate]
Criterion not met
4) Cc1c(-c2c(C(C)C)c3cc(C4CCN(CC(N)=O)CC4)ccc3n2C(=O)OC[C@@H]2CCCCN2C(=O)OCOP(=O)(O)O)cn2ncnc2c1C [Example 2]
Criterion not met
5) Cc1c(-c2c(C(C)C)c3cc(C4CCN(CC(N)=O)CC4)ccc3n2C(=O)CN(C)C(=O)OCOP(=O)(O)O)cn2ncnc2c1C [Example 19]
Criterion not met

Has Cc1c(-c2c(C(C)C)c3cc(C4CCN(CC(N)=O)CC4)ccc3n2CO)cn2ncnc2c1C [Example 25] a recorded solubility greater than or equal to 0.8 mg/mL? Criterion met

Ok, now Cc1c(-c2[nH]c3ccc(C4CC[N+](COP(=O)(O)O)(CC(N)=O)CC4)cc3c2C(C)C)cn2ncnc2c1C (single isomer, unassigned) [Example 9, trifluoroacetate] Criterion met

----------
measurement protocol: Stability evaluation in aqueous buffer
Format: physicochemical
condition summary: aqueous buffer, pH 6.5, pH 6.5 (phosphate buffer), 37° C., about 50 μg/mL, about 15% v/v acetonitrile; read-out: Stability (t1/2, h) at 37° C. pH 6.5 (converted)
metric: half-life (h)
Just the number please, in h, no unit attached.

Worked examples follow.
1) CNCC(=O)OCc1cccnc1N(C)C(=O)OC[n+]1cnn2cc(-c3[nH]c4ccc(C5CCN(CC(N)=O)CC5)cc4c3C(C)C)c(C)c(C)c21 [Example 13]
2.5
2) CNCC(=O)OCc1cccnc1N(C)C(=O)OC[N+]1(CC(N)=O)CCC(c2ccc3[nH]c(-c4cn5ncnc5c(C)c4C)c(C(C)C)c3c2)CC1 (stereo not shown) [Example 12]
1.6

# next molecule below
Look up half-life for this molecule: Cc1c(-c2c(C(C)C)c3cc(C4CCN(CC(N)=O)CC4)ccc3n2C(=O)OC[C@@H]2CCCN2C(=O)OCOP(=O)(O)O)cn2ncnc2c1C [Example 4] 231
